- assayed target: fluorescein-labeled CBX8 peptide (FITC-CBX8) (fluorescein (printed as FITC-CBX8))
- method: fluorescence polarisation
reported endpoint: pKd
Give bare numbers, as −log10 of the molar value.

Note to self: pKd recorded for MBP-ENL (domain or fragment) YTDELVELHRRLMALRERNVLQQIVNLIEETGHFNVTNTTFDFDLFSLDETTVRKLQSCLE was 6.95

Measured values drawn from paper PMC7497807 for this set.
